Molecular target: D(1A) dopamine receptor (Homo sapiens, UniProt P21728); further: assay procedure not described here
Sequence (P21728 whole entry): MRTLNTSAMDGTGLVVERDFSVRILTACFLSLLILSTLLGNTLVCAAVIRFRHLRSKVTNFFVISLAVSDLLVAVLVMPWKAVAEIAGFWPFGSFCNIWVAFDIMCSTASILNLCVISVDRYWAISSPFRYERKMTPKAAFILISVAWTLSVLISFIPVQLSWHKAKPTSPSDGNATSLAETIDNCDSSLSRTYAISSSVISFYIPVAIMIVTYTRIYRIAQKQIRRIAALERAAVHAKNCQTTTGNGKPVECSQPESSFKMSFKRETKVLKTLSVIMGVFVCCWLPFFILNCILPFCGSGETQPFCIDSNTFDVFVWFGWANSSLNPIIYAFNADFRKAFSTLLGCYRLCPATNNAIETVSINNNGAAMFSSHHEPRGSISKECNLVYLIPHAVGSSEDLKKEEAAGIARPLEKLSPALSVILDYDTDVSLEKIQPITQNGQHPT
Type: functional, cell-based
Quick list: AC50 per entry.

Here is how some molecules turned out for AC50.
{"columns": ["Molecule", "Reported property", "Meas value"],
 "data": [
  ["COC(=O)[C@H](c1ccccc1Cl)N1CCc2sccc2C1 [CLOPIDOGREL]", "AC50", "19 µM"],
  ["C#C[C@]1(O)CC[C@H]2[C@@H]3CCC4=CC(=O)CCC4=C3C=C[C@@]21CC [GESTRINONE]", "AC50", "> 30 µM"],
  ["COC(=O)N[C@@H](C)CNc1nccc(-c2cn(C(C)C)nc2-c2cc(Cl)cc(NS(C)(=O)=O)c2F)n1 [ENCORAFENIB]", "AC50", "> 30 µM"]
]}

Quick check: AC50 of CN1C[C@H](C(=O)N[C@]2(C)O[C@@]3(O)[C@@H]4CCCN4C(=O)[C@H](Cc4ccccc4)N3C2=O)C[C@@H]2c3cccc4[nH]cc(c34)C[C@H]21 [DIHYDROERGOTAMINE] ? 0.358 µM

Would you mind telling me what AC50 value was observed for CCCCC[C@H](O)/C=C/[C@H]1[C@H](O)CC(=O)[C@@H]1C/C=C\CCCC(=O)O [DINOPROSTONE] ? > 30 µM

AC50 lookup needed for CN(C)c1cc(NC(=O)CNC(C)(C)C)c(O)c2c1C[C@H]1C[C@H]3[C@H](N(C)C)C(O)=C(C(N)=O)C(=O)[C@@]3(O)C(O)=C1C2=O [TIGECYCLINE] , thanks. > 30 µM

Every entry's value here was drawn from ChEMBL document CHEMBL5291721.
